# assaySystem: Cathepsin S (Homo sapiens)
# Sequence (P25774 115-331, species assumed): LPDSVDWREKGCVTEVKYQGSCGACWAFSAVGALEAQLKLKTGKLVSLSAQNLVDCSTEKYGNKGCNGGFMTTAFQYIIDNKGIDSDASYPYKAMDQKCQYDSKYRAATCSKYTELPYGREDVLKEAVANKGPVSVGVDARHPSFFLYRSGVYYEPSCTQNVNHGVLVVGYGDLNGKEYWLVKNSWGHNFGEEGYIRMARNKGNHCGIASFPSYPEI
# protocolDescription: Cathepsin S inhibition assay (fluorogenic peptide substrate)
# Format: biochemical
# conditionDescription: Table II, compounds of Formula I; read-out: Ki Cat. S
propertyLabel: Ki

Name the recorded Ki for COc1ccc(NCCNC(=O)[C@H](Cc2ccc(Oc3ccccc3)cc2)NC(=O)c2cccc(C)c2)cc1 . < 1000 nM

Name the recorded Ki for COc1ccc(NCCNC(=O)[C@H](Cc2ccc(Oc3cc(Cl)cc(Cl)c3)cc2)NC(=O)c2cccc(C)c2)cc1 . < 10000 nM

Name the recorded Ki for COc1ccc(NCCNC(=O)[C@H](Cc2ccc(-c3ccc(O)cc3)cc2)NC(=O)c2cccc(C)c2)cc1 . < 1000 nM

Name the recorded Ki for COc1ccc(NCCNC(=O)[C@H](CC2CCCCC2)NC(=O)c2cnn(-c3ccc(OC)cc3)c2C)cc1 . < 100 nM

Name the recorded Ki for O=C(N[C@@H](CC1CCCCC1)C(=O)NCCNc1ccc(F)cc1)c1ccnnc1 . < 1000 nM

Name the recorded Ki for CS(=O)(=O)c1ccc(CC(=O)N[C@@H](CC2CCCCC2)C(=O)NCCNc2ccc(F)cc2)cc1 . < 1000 nM

----------
# assaySystem: UniProtKB P25774
# protocolDescription: Cathepsin S inhibition assay (fluorogenic peptide substrate)
# Type: biochemical
# conditionDescription: Table II, compounds of Formula I; read-out: Ki Cat. S
# Source text: “Inhibition constant”, Ki, is the dissociation constant of the enzyme-inhibitor complex, or the reciprocal of the binding affinity of the inhibitor to the enzyme. […] The inhibited rates are then fit by nonlinear regression to the following equation: […] The assumption being made for the classical inhibition described above is that the free inhibitor concentration is equal to the total inhibitor concentration. […]
propertyLabel: Ki

Below: 5 compounds and their reported Ki.
compound	observedResult
COc1ccc(NCCNC(=O)[C@H](CCC2CCCCC2)NC(=O)c2cccc(OC(F)(F)F)c2)cc1 [Compound 138]	< 100 nM
COc1ccc(NCCNC(=O)[C@H](CC2CCCCC2)NC(=O)c2cccc(C(F)(F)F)c2F)cc1 [Compound 166]	< 100 nM
O=C(Cc1ccc(F)cc1)N[C@@H](CC1CCCCC1)C(=O)NCCNc1ccc(F)cc1 [Compound 152]	< 100 nM
CC(C(=O)N[C@@H](CC1CCCCC1)C(=O)NCCNc1ccc(F)cc1)c1ccc(F)cc1 (stereo partly drawn) [Compound 310]	< 100 nM
COc1ccc(NCCNC(=O)[C@H](CCC2CCCCC2)NC(=O)c2cc3cc(Cl)ccc3o2)cc1 [Compound 134]	< 1000 nM

Please examine the following record next.
What value of Ki on UniProtKB P25774 does COc1ccc(NCCNC(=O)[C@H](CCC2CCCCC2)NC(=O)[C@@H](C)c2ccccc2)cc1 [Compound 128] have? < 100 nM

----------
# assaySystem: Cathepsin S (Homo sapiens)
# protocolDescription: Cathepsin S inhibition assay (fluorogenic peptide substrate)
# Type: biochemical
# conditionDescription: Table II, compounds of Formula I; read-out: Ki Cat. S
propertyLabel: Ki

Below: 5 compounds and their reported Ki.
compound	Ki
COc1ccc(NCCNC(=O)[C@H](Cc2ccccc2)NC(=O)NCc2cccc(F)c2)cc1 [Compound 96]	< 10000 nM
O=C(N[C@@H](CC1CCCCC1)C(=O)NCCNc1ccc(OC(F)(F)F)cc1)c1ccc(-c2ccccc2C(F)(F)F)s1 [Compound 35]	< 100 nM
COc1ccc(NCCNC(=O)[C@H](CC2CCCCC2)NC(=O)c2cccc(C#N)c2)cc1 [Compound 120]	< 100 nM
COc1ccc(CC(=O)N[C@@H](CC2CCCCC2)C(=O)NCCNc2ccc(F)cc2)cc1 [Compound 301]	< 100 nM
COc1ccc(NCCNC(=O)[C@H](CC2CCCCC2)NC(=O)c2ccc(Br)o2)cc1 [Compound 177]	< 100 nM

Name the recorded Ki for O=C(Cc1cccs1)N[C@@H](CC1CCCCC1)C(=O)NCCNc1ccc(F)cc1 [Compound 76] . < 100 nM

Every entry's value here was drawn from patent US7109243B2.
